# tested.system: hGIPR (Homo sapiens, UniProt P48546)
# Sequence (P48546 22-466): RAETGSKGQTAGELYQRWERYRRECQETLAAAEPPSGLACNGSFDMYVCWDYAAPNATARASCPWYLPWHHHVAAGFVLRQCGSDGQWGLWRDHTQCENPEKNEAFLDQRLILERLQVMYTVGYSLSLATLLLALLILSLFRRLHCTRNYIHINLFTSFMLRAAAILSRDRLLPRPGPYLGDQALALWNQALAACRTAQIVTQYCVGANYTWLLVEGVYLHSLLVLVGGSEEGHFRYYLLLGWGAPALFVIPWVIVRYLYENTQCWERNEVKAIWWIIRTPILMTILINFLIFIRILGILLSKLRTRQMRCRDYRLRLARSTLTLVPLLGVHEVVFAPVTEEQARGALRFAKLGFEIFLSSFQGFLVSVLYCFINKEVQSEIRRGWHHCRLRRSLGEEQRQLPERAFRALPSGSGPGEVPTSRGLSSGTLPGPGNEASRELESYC
# assay.name: Functional cAMP activity in the presence of 1% HSA
# Assay type: cell-based
# experimental.parameters: read-out: cAMP Rel EC50, hGIPR
Starred links: 1 amine or outer side, 2 acyl side, 3 side chain; linkers in the order of their positions; H or OH if unused. Non-standard residues stand in square brackets, D forms with d. Groups on a side chain read outwards from the residue. *: point of attachment. C18 diacid = O=C(O)CCCCCCCCCCCCCCCCC(=O)*; γGlu = O=C(O)[C@H](CCC(=O)[*:2])N[*:1]; αMeL = CC(C)C[C@](C)(N)C(=O)O; Orn = NCCC[C@H](N)C(=O)O; Dap = NC[C@H](N)C(=O)O; AEEA = NCCOCCOCC(=O)O; Aib = CC(C)(N)C(=O)O
property.measured: pEC50
Quick note: pEC50 values are minus log10 of concentrations in mol/L.

Some entries whose results are on file:
substance: H-Y[Aib]QGTFTSDFS[Dap][αMeL]LDKK([γGlu-γGlu-C18 diacid])AQ[Aib]AFIEYLLE[Aib]GPSSGAPPPSGS-NH2 [Example 203]
pEC50: 7.72
//
substance: H-Y[Aib]QGTFTSDFS[Orn][αMeL]LDKK([γGlu-AEEA-γGlu-C18 diacid])AQ[Aib]AFIEYLLE[Aib]GESSGAPPPSGS-NH2 [Example 244]
pEC50: 7.73

Prompt: Give measured pEC50 for H-Y[Aib]QGTFTSDFS[Orn][αMeL]LDKK([AEEA-γGlu-C18 diacid])AQ[Aib]AFIEYLLEGGPSSGAPPPEGT-NH2 [Example 160] (hGIPR (Homo sapiens, UniProt P48546)).
Response: 7.35

This collection of values is drawn from patent US20240270821A1.
